Target: T1, human Y2 receptor (human, UniProt P49146 1-381)
T1 construct: whole, on cells; used as membrane fraction of hY2R/CHO cells; also called human NPY2R; hY2R
T1 sequence (looked up): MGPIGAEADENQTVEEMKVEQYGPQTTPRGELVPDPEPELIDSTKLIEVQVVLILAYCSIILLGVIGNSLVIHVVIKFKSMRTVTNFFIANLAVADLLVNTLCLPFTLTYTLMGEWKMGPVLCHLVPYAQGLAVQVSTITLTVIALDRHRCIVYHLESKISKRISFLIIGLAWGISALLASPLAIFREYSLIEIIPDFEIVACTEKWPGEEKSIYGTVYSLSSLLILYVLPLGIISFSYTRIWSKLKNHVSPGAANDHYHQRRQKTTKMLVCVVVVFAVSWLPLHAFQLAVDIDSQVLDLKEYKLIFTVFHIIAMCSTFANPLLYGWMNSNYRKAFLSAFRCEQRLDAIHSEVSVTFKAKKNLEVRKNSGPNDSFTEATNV
Assay: RBA: [125I]-PYY displacement, hY2R/CHO membranes
Non-standard residues stand in square brackets, D forms with d. No end group written: not given here. 1Nal = N[C@@H](Cc1cccc2ccccc12)C(=O)O; 4Amb = NCc1ccc(C(=O)O)cc1
readout-label: IC50 Ratio (vs PYY(3-36)) (ratio)
All answers are understood in ratio, so give the number only.

[4Amb]RAYINLILRQRY-NH2 (N-terminus assumed; SMILES CC[C@H](C)[C@H](NC(=O)[C@H](Cc1ccc(O)cc1)NC(=O)[C@H](C)NC(=O)[C@H](CCCNC(=N)N)NC(=O)c1ccc(CN)cc1)C(=O)N[C@@H](CC(N)=O)C(=O)N[C@@H](CC(C)C)C(=O)N[C@H](C(=O)N[C@@H](CC(C)C)C(=O)N[C@@H](CCCNC(=N)N)C(=O)N[C@@H](CCC(N)=O)C(=O)N[C@@H](CCCNC(=N)N)C(=O)N[C@@H](Cc1ccc(O)cc1)C(N)=O)[C@@H](C)CC, also called compound No. 62) [4-Aminomethylbenzoyl-[Ala26, Ile28,31, Leu32]-PYY(25-36)]: 18

Proceeding to the next binder to report its IC50 Ratio (vs PYY(3-36)).
For the binder shown here, [4Amb]RAYIN[1Nal]ITRQRY-NH2 (N-terminus assumed; SMILES CC[C@H](C)[C@H](NC(=O)[C@H](Cc1ccc(O)cc1)NC(=O)[C@H](C)NC(=O)[C@H](CCCNC(=N)N)NC(=O)c1ccc(CN)cc1)C(=O)N[C@@H](CC(N)=O)C(=O)N[C@@H](Cc1cccc2ccccc12)C(=O)N[C@H](C(=O)N[C@H](C(=O)N[C@@H](CCCNC(=N)N)C(=O)N[C@@H](CCC(N)=O)C(=O)N[C@@H](CCCNC(=N)N)C(=O)N[C@@H](Cc1ccc(O)cc1)C(N)=O)[C@@H](C)O)[C@@H](C)CC, also called compound No. 55) [4-Aminomethylbenzoyl-[Ala26, Ile28,31, Nal(1)30]-PYY(25-36)] , give the reported IC50 Ratio (vs PYY(3-36)).
3.4
